molecular target: Pyruvate kinase PKLR (Homo sapiens, UniProt P30613, R532W); test: Activation of PKR R532W mutant (unknown origin) incubated for 60 mins in presence of ADP, PEP and NADH by Spectraax microplate reader based assay
Sequence (P30613 whole entry R532W): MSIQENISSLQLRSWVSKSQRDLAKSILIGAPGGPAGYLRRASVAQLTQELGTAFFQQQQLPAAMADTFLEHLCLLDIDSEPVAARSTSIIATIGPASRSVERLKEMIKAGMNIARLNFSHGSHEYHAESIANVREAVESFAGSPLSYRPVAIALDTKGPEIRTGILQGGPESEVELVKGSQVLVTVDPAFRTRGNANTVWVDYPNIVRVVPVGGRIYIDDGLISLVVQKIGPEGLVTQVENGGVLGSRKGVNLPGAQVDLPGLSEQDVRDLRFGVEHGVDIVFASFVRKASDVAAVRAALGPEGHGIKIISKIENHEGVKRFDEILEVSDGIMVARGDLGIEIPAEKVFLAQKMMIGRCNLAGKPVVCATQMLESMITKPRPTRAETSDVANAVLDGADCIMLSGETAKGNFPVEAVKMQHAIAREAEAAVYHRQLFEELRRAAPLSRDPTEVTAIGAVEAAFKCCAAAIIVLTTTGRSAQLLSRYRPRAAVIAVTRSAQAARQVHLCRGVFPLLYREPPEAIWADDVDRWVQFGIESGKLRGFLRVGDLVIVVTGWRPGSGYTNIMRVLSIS
readout kind: AC50

1. O=C(c1ccc(NS(=O)(=O)c2cc(F)cc3scnc23)cc1)N1CCC(O)(c2ccccc2Cl)CC1 :: < 100 nM
2. COc1ccccc1C1(O)CCN(C(=O)c2ccc(NS(=O)(=O)c3cccc4cccnc34)cc2)CC1 :: < 100 nM
3. CC(C)(O)CCCC1(O)CCN(C(=O)c2ccc(NS(=O)(=O)c3cccc4nccnc34)cc2)CC1 :: > 10000 nM
4. O=C(c1ccc(NS(=O)(=O)c2cccc3cccnc23)c(F)c1)N1CCC(O)(Cc2ccccc2)CC1 :: < 100 nM
5. O=C(c1ccc(NS(=O)(=O)n2ccc3cccnc32)cc1)N1CCC(O)(c2ccccc2Cl)CC1 :: > 10000 nM
6. O=C(c1ccc(NS(=O)(=O)c2cccc3cccnc23)cc1)N1CCC(O)(c2ccc(F)cc2)CC1 :: < 100 nM
7. O=C(c1ccc(NS(=O)(=O)c2cccc3c2OCC3)cc1)N1CCC(O)(c2ccccc2Cl)CC1 :: ≥ 1010 nM
8. O=C(c1ccc(NS(=O)(=O)c2cccc3cccnc23)cc1)N1CCC(O)(CC2CC2(F)F)CC1 (stereo not drawn) :: < 100 nM

###

Entries and their AC50 values follow.
target: Pyruvate kinase PKLR (Homo sapiens, UniProt P30613, R510Q); test: Activation of PKR R510Q mutant (unknown origin) incubated for 60 mins in presence of ADP, PEP and NADH by Spectraax microplate reader based assay
Sequence (P30613 whole entry R510Q): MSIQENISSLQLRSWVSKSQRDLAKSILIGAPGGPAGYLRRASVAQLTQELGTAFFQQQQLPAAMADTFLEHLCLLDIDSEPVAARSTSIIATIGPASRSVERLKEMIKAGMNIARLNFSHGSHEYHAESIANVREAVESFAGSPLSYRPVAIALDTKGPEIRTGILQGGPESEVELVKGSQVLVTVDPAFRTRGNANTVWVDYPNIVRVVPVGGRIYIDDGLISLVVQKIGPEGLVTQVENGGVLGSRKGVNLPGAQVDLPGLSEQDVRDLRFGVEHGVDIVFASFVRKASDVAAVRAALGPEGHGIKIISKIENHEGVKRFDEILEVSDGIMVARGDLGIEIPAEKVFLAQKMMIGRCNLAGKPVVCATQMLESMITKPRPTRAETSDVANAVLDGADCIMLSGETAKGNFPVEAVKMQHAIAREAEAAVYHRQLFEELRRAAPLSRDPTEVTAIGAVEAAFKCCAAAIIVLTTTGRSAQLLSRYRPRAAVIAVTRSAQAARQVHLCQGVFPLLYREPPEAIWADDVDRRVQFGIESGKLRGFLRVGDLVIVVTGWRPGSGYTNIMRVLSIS
readout kind: AC50

1. Cc1cc(C(=O)N2CCC(O)(c3cccc(Cl)c3)CC2)ccc1NS(=O)(=O)c1cccc2cccnc12 :: ≤ 1000 nM
2. CC(C)(C)CC1(O)CCN(C(=O)c2ccc(NS(=O)(=O)c3cccc4scnc34)cc2)CC1 :: < 100 nM
3. CCS(=O)(=O)CC1(O)CCN(C(=O)c2ccc(NS(=O)(=O)c3cccc4nccnc34)cc2)CC1 :: > 10000 nM
4. CC(C)CC1(O)CCN(C(=O)c2ccc(NS(=O)(=O)c3cccc4sc(N)nc34)cc2)CC1 :: < 100 nM
5. Cc1nscc1CC1(O)CCN(C(=O)c2ccc(NS(=O)(=O)c3cccc4scnc34)cc2)CC1 :: < 100 nM
6. O=C(c1ccc(NS(=O)(=O)c2cccc3scnc23)cc1)N1CCC(O)(Cc2ccccc2C(F)(F)F)CC1 :: < 100 nM
7. CC(C)CCC1(O)CCN(C(=O)c2ccc(NS(=O)(=O)c3cccc4scnc34)cc2)CC1 :: < 100 nM
8. CC1(CC2(O)CCN(C(=O)c3ccc(NS(=O)(=O)c4cccc5cccnc45)cc3)CC2)CC1 :: < 100 nM
9. O=C(c1ccc(NS(=O)(=O)c2cccc3cccnc23)cc1)N1CCC(O)(Cc2ccccc2)CC1 :: < 100 nM

###

AC50 values, listed per item
molecular target: Pyruvate kinase PKLR (Homo sapiens); assay: Activation of wild type PKR (unknown origin) incubated for 60 mins in presence of ADP, PEP and NADH by Spectraax microplate reader based assay
readout kind: AC50

1) CC(C)C1(O)CCN(C(=O)c2ccc(NS(=O)(=O)c3cccc4cccnc34)cc2)CC1 :: < 100 nM
2) O=C(c1ccc(NS(=O)(=O)c2ccccc2Cl)cc1)N1CCC(O)(Cc2ccccc2)CC1 :: ≤ 1000 nM
3) Nc1c(O)cccc1S(=O)(=O)Nc1ccc(C(=O)N2CCC(O)(c3ccccc3Cl)CC2)cc1 :: < 100 nM
4) CC(CC1(O)CCN(C(=O)c2ccc(NS(=O)(=O)c3cccc4c(O)ncnc34)cc2)CC1)C(F)(F)F (stereo not given) :: < 100 nM
5) CC(C)CC1(O)CCN(C(=O)c2ccc(NS(=O)(=O)c3cccc4ncc(N)nc34)cc2)CC1 :: < 100 nM
